These measurements were taken from paper PMC9945177.

# assayName: skin permeability, static Franz diffusion cells
# Assay type: in vitro ADME, pig
# conditionSummary: pig, w/w %; sum of receptor compartment after 6 h and overnight skin extraction
valueType: recovery at 6 h, 0.1 mg/mL (%)
Express your answer in %, writing the number without its unit.

molecule: c1cc(CC2CO2)ccc1CO[C@H]1CO[C@H]2[C@@H]1OC[C@H]2OCc1ccc(CC2CO2)cc1 (stereo partly drawn)
recovery at 6 h, 0.1 mg/mL (%): 25
--
molecule: CC(C)(c1ccc(OCC2CO2)cc1)c1ccc(OCC2CO2)cc1 (stereo not drawn) [DGEBA, diglycidyl ether of bisphenol A, reference compound]
recovery at 6 h, 0.1 mg/mL (%): 35

## Input Field request: recovery at 6 h, 0.1 mg/mL | item: O=C(OC1COC2C(OC(=O)c3ccc(CC4CO4)cc3)COC12)c1ccc(CC2CO2)cc1 (stereo not drawn)
## Output 48
